All figures here come from paper PMC2970651.

test system: maximal electroshock seizure (generalized tonic-clonic seizures); test: Maximal Electroshock Seizure; format: in vivo, mice; settings: mice, i.p., 0.5 h; 100 mg/kg (stated for 19 and 20)
Quick reference: MES protection, animals protected/animals tested at 0.5 h of the listed items.

Sample answers from the record:
- CHEMICAL_STRUCTURE: "O=[N+]([O-])c1cccc(-c2nc(-c3ccccc3)c[nH]2)c1"
  ASSAY_RESULT: "2/3"
- CHEMICAL_STRUCTURE: "Clc1ccc(-c2c[nH]c(-c3ccccc3)n2)cc1"
  ASSAY_RESULT: "3/3"

[Q] Entry "O=[N+]([O-])c1cccc(-c2c[nH]c(-c3ccccc3)n2)c1" has what MES protection, animals protected/animals tested at 0.5 h?
[A] 2/3

[Q] Now the same for "Clc1cccc(-c2c[nH]c(-c3ccccc3)n2)c1"
[A] 3/3
